Tested on: HUVEC/MSC spheroids viability
Assay: Human HUVEC/MSC cell line growth inhibition [KRAS2];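 note: percent of DMSO vehicle control luminescence so 100% = untreated viability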
Conditions: second compound 0.03 µM; first compound 10 µM; hits give low values
measured metric: viability, T/C (%)
State just the number; it will be interpreted in %.

Below: 5 compounds and their reported viability, T/C.
compound="CCNC(=O)CC1N=C(c2ccc(Cl)cc2)c2cc(OC)ccc2-n2c(C)nnc21 (centres undefined) + C=CC(=O)N1CCN(c2nc(OCC3CCCN3C)nc3c2CCN(c2cccc4cccc(C)c24)C3)CC1CC#N" assayed_target="HUVEC/MSC spheroids viability" unit_name=% measurement=110
compound="CC(C)NCC(C(=O)N1CCN(c2ncnc3c2C(C)CC3O)CC1)c1ccc(Cl)cc1 (centres undefined) + C=CC(=O)N1CCN(c2nc(OCC3CCCN3C)nc3c2CCN(c2cccc4cccc(C)c24)C3)CC1CC#N" assayed_target="HUVEC/MSC spheroids viability" unit_name=% measurement=46.1
compound="O=C(c1cc(Cc2n[nH]c(=O)c3ccccc23)ccc1F)N1CCN(C(=O)C2CC2)CC1 + C=CC(=O)N1CCN(c2nc(OCC3CCCN3C)nc3c2CCN(c2cccc4cccc(C)c24)C3)CC1CC#N" assayed_target="HUVEC/MSC spheroids viability" unit_name=% measurement=83.7
compound="COc1cc2nccc(Oc3ccc(NC(=O)C4(C(=O)Nc5ccc(F)cc5)CC4)cc3)c2cc1OC + C=CC(=O)N1CCN(c2nc(OCC3CCCN3C)nc3c2CCN(c2cccc4cccc(C)c24)C3)CC1CC#N" assayed_target="HUVEC/MSC spheroids viability" unit_name=% measurement=30.8
compound="COC(=O)c1ccc2c(C(=Nc3ccc(N(C)C(=O)CN4CCN(C)CC4)cc3)c3ccccc3)c(O)[nH]c2c1 + C=CC(=O)N1CCN(c2nc(OCC3CCCN3C)nc3c2CCN(c2cccc4cccc(C)c24)C3)CC1CC#N" assayed_target="HUVEC/MSC spheroids viability" unit_name=% measurement=0.35

Need viability, T/C of Cn1nccc1Nc1nccc(-c2cc3c(s2)C(C)(C)N(CCN2CCOCC2)C3=O)n1 + C=CC(=O)N1CCN(c2nc(OCC3CCCN3C)nc3c2CCN(c2cccc4cccc(C)c24)C3)CC1CC#N , thanks.
5.51

# iterate: COc1cc(Nc2ncc3c(n2)-c2ccc(Cl)cc2C(c2c(F)cccc2OC)=NC3)ccc1C(=O)O + C=CC(=O)N1CCN(c2nc(OCC3CCCN3C)nc3c2CCN(c2cccc4cccc(C)c24)C3)CC1CC#N
68.2

Further, for CC1(C)CCC(CN2CCN(c3ccc(C(=O)NS(=O)(=O)c4ccc(NCC5CCOCC5)c([N+](=O)[O-])c4)c(Oc4cnc5[nH]ccc5c4)c3)CC2)=C(c2ccc(Cl)cc2)C1 + C=CC(=O)N1CCN(c2nc(OCC3CCCN3C)nc3c2CCN(c2cccc4cccc(C)c24)C3)CC1CC#N ?
3.1

# iterate: CC1OCC2(CCN(c3cnc(Sc4ccnc(N)c4Cl)c(N)n3)CC2)C1N (centres undefined) + C=CC(=O)N1CCN(c2nc(OCC3CCCN3C)nc3c2CCN(c2cccc4cccc(C)c24)C3)CC1CC#N
67.9
